tested on: TYK2 (Homo sapiens (Human), UniProt P29597)
Sequence (P29597 whole entry): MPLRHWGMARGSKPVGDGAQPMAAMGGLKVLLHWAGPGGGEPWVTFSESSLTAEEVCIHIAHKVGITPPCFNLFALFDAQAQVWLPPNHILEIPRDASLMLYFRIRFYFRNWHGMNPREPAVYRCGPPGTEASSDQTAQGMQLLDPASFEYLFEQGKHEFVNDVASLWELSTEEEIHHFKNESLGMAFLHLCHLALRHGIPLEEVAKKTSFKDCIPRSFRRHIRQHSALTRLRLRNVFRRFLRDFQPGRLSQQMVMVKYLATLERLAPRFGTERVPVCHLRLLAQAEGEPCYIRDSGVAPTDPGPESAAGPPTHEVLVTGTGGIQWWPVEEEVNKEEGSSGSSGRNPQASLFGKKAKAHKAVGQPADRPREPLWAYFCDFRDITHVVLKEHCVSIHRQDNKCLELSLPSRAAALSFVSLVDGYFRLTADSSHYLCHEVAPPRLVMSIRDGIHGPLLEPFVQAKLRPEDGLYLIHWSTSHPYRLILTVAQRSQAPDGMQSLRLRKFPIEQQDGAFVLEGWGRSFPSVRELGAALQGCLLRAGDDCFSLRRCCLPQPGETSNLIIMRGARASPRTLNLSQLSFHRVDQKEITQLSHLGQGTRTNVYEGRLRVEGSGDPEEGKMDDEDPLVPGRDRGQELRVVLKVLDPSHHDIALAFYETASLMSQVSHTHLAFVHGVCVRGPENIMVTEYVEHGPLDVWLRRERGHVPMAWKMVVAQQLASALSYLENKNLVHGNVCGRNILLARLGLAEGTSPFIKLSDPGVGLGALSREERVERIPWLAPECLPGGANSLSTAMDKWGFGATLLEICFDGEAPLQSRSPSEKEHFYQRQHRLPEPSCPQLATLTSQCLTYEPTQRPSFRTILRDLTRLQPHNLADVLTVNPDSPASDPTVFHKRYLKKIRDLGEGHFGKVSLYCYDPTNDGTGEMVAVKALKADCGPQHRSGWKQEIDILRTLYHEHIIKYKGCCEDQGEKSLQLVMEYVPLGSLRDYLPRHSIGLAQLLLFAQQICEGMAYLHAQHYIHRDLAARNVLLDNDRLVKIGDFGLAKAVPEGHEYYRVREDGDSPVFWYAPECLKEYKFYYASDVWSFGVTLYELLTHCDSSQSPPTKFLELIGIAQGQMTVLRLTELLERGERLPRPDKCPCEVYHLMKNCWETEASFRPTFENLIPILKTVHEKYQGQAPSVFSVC
experimental details: Biochemical potency on Tyk2, TR-FRET LANCE Ultra kinase assay (compounds 1-92)
applied conditions: ATP at Km, read-out: Tyk2 inhibitory activity (pIC50 class) (converted)
Below, each entry is listed alongside its reported IC50.

Below, 6 molecules whose answers are already recorded.
1) COc1cc(NS(=O)(=O)c2cnn(C)c2)ccc1-n1nc(C)c2cnc(Nc3ncc[nH]c3=O)cc21 5.01 to 50.1 nM
2) COc1cc(NS(C)(=O)=O)ccc1-n1nc(NCCCNC(=O)OC(C)(C)C)c2cnc(-c3cnn4cccnc34)cc21 5.01 to 50.1 nM
3) COc1cc(NS(=O)(=O)C2CC2)ccc1-n1nc(NCCCN2CCOCC2)c2cnc(-c3cnn4cccnc34)cc21 5.01 to 50.1 nM
4) COc1cc(NS(=O)(=O)C2CC2)ccc1-n1nc(NCCN(C)C)c2cnc(-c3cnn4cccnc34)cc21 5.01 to 50.1 nM
5) CNc1nn(-c2ccc(CNS(C)(=O)=O)cc2OC)c2cc(-c3cnn4cccnc34)ncc12 5.01 to 50.1 nM
6) CCCS(=O)(=O)Nc1ccc(-n2nc(C(=O)NCCCN3CCOCC3)c3cnc(-c4cnn5cccnc45)cc32)c(OC)c1 > 50.1 nM

Alright, here's another molecule for you.
Request: Identify measured IC50 corresponding to CNC(=O)Nc1ccc(-n2nc(C)c3cnc(-c4cnn5cccnc45)cc32)c(OC)c1
Response: > 50.1 nM
